Where do these numbers come from? They come from paper PMC9104225.

Tested System: Cathepsin H (Homo sapiens)
Sequence (P09668 116-335 limits assumed, other chains not shown): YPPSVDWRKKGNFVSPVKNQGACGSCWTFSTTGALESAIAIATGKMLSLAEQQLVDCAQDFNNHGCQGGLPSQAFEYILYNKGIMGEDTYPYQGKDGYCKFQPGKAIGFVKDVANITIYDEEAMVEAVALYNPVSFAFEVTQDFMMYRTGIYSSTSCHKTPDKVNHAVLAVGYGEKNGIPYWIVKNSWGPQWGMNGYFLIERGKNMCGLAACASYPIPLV
Measurement Protocol: Specificity of inhibitors: cathepsin H activity with Arg-AMC
Format: biochemical
Condition Info: pH 7.2, without pre-incubation
pIC50: −log10 of the molar value.
Listing of entries alongside the reported pIC50.

[
  {
    "Compound": "Cc1cccc(C)c1C(=O)OCC(=O)[C@H](CCCCN)NC(=O)[C@H](CCCN=C(N)N)NC(=O)OCc1ccccc1 [Z-Arg-Lys-AOMK]",
    "pIC50": "< 4.80"
  }
]

Below: the item to evaluate.
Task item: API: value(readout=pIC50, system=Cathepsin H (Homo sapiens)) for record Cc1cccc(C)c1C(=O)OCC(=O)C(CCCCN)NC(=O)C(CCC(=O)O)NC(=O)OCc1ccccc1 (stereo not drawn) [Z-Glu-Lys-AOMK]
Reply: < 4.80
